These measurements were taken from the supplement of paper PMC11061612.

Test system: KYSE-270 (Esophageal Squamous Cell Carcinoma)
Test: Bliss excess, mean over the matrix (fraction); higher = more synergy;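 also: after 72 h of two-drug dosing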
Quantity Name: Bliss excess
Answers are plain numbers.

# Bliss excess (compound: NC1(C(=O)N[C@@H](CCO)c2ccc(Cl)cc2)CCN(c2ncnc3[nH]ccc23)CC1 [Capivasertib] + C[C@@H]1COCCN1C2=NC(=NC(=C2)C3(CC3)[S@](=N)(=O)C)C4=C5C=CNC5=NC=C4 [AZD6738] (first compound max 10 µM, 7x7, partner max 10 µM) ) is -0.0847

Turning to the following compound.
# Bliss excess (compound: CN(CCO)CC[C@H](CSc1ccccc1)Nc1ccc(S(=O)(=O)NC(=O)c2ccc(N3CCC([C@@H](O)c4ccccc4-c4ccc(Cl)cc4)CC3)cc2)cc1S(=O)(=O)C(F)(F)F [AZD4320] + C1CN(CCC1(C(=O)N[C@@H](CCO)C2=CC=C(C=C2)Cl)N)C3=NC=NC4=C3C=CN4 [Capivasertib] (first compound max 1 µM, 7x7, partner max 3 µM) ) is -0.0441

###

Test system: KU812 (Chronic Myelogenous Leukemia)
Assay: Bliss excess, mean over the matrix (fraction); higher = more synergy
Quantity Name: Bliss excess
One number for each entry.

# Bliss excess (molecule: COc1cccc(OCCCN)c1-c1cc(Nc2cnc(C#N)cn2)n[nH]1 [Prexasertib] + C=CCn1c(=O)c2cnc(Nc3ccc(N4CCN(C)CC4)cc3)nc2n1-c1cccc(C(C)(C)O)n1 [AZD1775] (first compound max 1 µM, partner max 1 µM) ) is -0.0401

# Bliss excess (molecule: C[C@@H]1COCCN1c1cc(C2([S@](C)(=N)=O)CC2)nc(-c2ccnc3[nH]ccc23)n1 [AZD6738] + O=C(c1cc(Cc2n[nH]c(=O)c3ccccc23)ccc1F)N1CCN(C(=O)C2CC2)CC1 [Olaparib] (first compound max 10 µM, 7x7, partner max 10 µM) ) is -0.0429

# Bliss excess (molecule: COc1nnc2ccc(N3CCC(c4ccc(OCCN5CCN(C)C(=O)[C@H]5C)cc4)CC3)nn12 [AZD5153] + Cc1c2c(nn1C)CSCc1cc(n(C)n1)CSc1cc(c3ccccc3c1)OCCCc1c(C(=O)O)n(C)c3c-2c(Cl)ccc13 [AZD5991] (first compound max 1 µM, 7x7, partner max 1 µM) ) is -0.0007

# Bliss excess (molecule: O=C(c1cc(Cc2n[nH]c(=O)c3ccccc23)ccc1F)N1CCN(C(=O)C2CC2)CC1 [Olaparib] + CC1(C)CCC(CN2CCN(c3ccc(C(=O)NS(=O)(=O)c4ccc(NCC5CCOCC5)c([N+](=O)[O-])c4)c(Oc4cnc5[nH]ccc5c4)c3)CC2)=C(c2ccc(Cl)cc2)C1 [Venetoclax] (first compound max 10 µM, 7x7, partner max 1 µM) ) is -0.0241

# Bliss excess (molecule: CN(CCO)CC[C@H](CSc1ccccc1)Nc1ccc(S(=O)(=O)NC(=O)c2ccc(N3CCC([C@@H](O)c4ccccc4-c4ccc(Cl)cc4)CC3)cc2)cc1S(=O)(=O)C(F)(F)F [AZD4320] + C[C@@H](Nc1cc(F)cc(F)c1)c1cc(C(=O)N(C)C)cc2c(=O)cc(N3CCOCC3)oc12 [AZD8186] (first compound max 1 µM, 7x7, partner max 3 µM) ) is 0.0161

Turning to the following molecule.
# Bliss excess (molecule: CN(CCO)CC[C@H](CSc1ccccc1)Nc1ccc(S(=O)(=O)NC(=O)c2ccc(N3CCC([C@@H](O)c4ccccc4-c4ccc(Cl)cc4)CC3)cc2)cc1S(=O)(=O)C(F)(F)F [AZD4320] + C1CN(CCC1(C(=O)N[C@@H](CCO)C2=CC=C(C=C2)Cl)N)C3=NC=NC4=C3C=CN4 [Capivasertib] (first compound max 1 µM, 7x7, partner max 3 µM) ) is 0.0154

###

Test system: NCCIT (Other Solid Carcinomas)
Assay: Bliss excess, mean over the matrix (fraction); higher = more synergy
Please provide measured Bliss excess for the entries that follow.
Answers are plain numbers.

Below, 3 molecules whose answers are already recorded.
# Bliss excess (molecule: CCc1c2c(nc3ccc(O)cc13)-c1cc3c(c(=O)n1C2)COC(=O)[C@]3(O)CC [SN-38] + O=C(c1cc(Cc2n[nH]c(=O)c3ccccc23)ccc1F)N1CCN(C(=O)C2CC2)CC1 [Olaparib] (first compound max 0.3 µM, 7x7, partner max 10 µM) ) is 0.0062

# Bliss excess (molecule: CN(CCO)CC[C@H](CSc1ccccc1)Nc1ccc(S(=O)(=O)NC(=O)c2ccc(N3CCC([C@@H](O)c4ccccc4-c4ccc(Cl)cc4)CC3)cc2)cc1S(=O)(=O)C(F)(F)F [AZD4320] + CCN(CCO)CCCOc1ccc2c(Nc3cc(CC(=O)Nc4cccc(F)c4)[nH]n3)ncnc2c1 [AZD2811] (first compound max 1 µM, 7x7, partner max 1 µM) ) is 0.0034

# Bliss excess (molecule: N#Cc1cnc(Nc2cc(NC[C@H]3CNCCO3)c(C(F)(F)F)cn2)cn1 [SRA737] + Nc1ccn([C@@H]2O[C@H](CO)[C@@H](O)C2(F)F)c(=O)n1 [Gemcitabine] (first compound max 10 µM, 7x7, partner max 0.3 µM) ) is 0.0492

Others:
# Bliss excess (molecule: NC1(C(=O)N[C@@H](CCO)c2ccc(Cl)cc2)CCN(c2ncnc3[nH]ccc23)CC1 [Capivasertib] + CCN(CCO)CCCOc1ccc2c(Nc3cc(CC(=O)Nc4cccc(F)c4)[nH]n3)ncnc2c1 [AZD2811] (first compound max 10 µM, 7x7, partner max 1 µM) ) is 0.0475

###

System: VMRC-RCZ (Kidney Carcinoma)
Experiment: Bliss excess, mean over the matrix (fraction); higher = more synergy
Use class 1 when the recorded Bliss excess is no lower than -0.04; use class 0 when it is lower.

# count of solved cases: 5
Kindly determine if Bliss excess recorded for NC1(C(=O)N[C@@H](CCO)c2ccc(Cl)cc2)CCN(c2ncnc3[nH]ccc23)CC1 [Capivasertib] + C[C@@H]1COCCN1C2=NC(=NC(=C2)C3(CC3)[S@](=N)(=O)C)C4=C5C=CNC5=NC=C4 [AZD6738] (first compound max 10 µM, 7x7, partner max 10 µM) is above or exactly -0.04.
class 1

Kindly determine if Bliss excess recorded for CC(=O)c1c(C)c2cnc(Nc3ccc(N4CCNCC4)cn3)nc2n(C2CCCC2)c1=O [Palbociclib] + Cn1cnc2c(F)c(Nc3ccc(Br)cc3Cl)c(C(=O)NOCCO)cc21 [Selumetinib] (first compound max 10 µM, 7x7, partner max 10 µM) is above or exactly -0.04.
class 1

Kindly determine if Bliss excess recorded for CC1(C)CCC(CN2CCN(c3ccc(C(=O)NS(=O)(=O)c4ccc(NCC5CCOCC5)c([N+](=O)[O-])c4)c(Oc4cnc5[nH]ccc5c4)c3)CC2)=C(c2ccc(Cl)cc2)C1 [Venetoclax] + C1CN(CCC1(C(=O)N[C@@H](CCO)C2=CC=C(C=C2)Cl)N)C3=NC=NC4=C3C=CN4 [Capivasertib] (first compound max 1 µM, 7x7, partner max 3 µM) is above or exactly -0.04.
class 1

Kindly determine if Bliss excess recorded for CCN(CCO)CCCOc1ccc2c(Nc3cc(CC(=O)Nc4cccc(F)c4)[nH]n3)ncnc2c1 [AZD2811] + C=CCn1c(=O)c2cnc(Nc3ccc(N4CCN(C)CC4)cc3)nc2n1-c1cccc(C(C)(C)O)n1 [AZD1775] (first compound max 1 µM, partner max 1 µM) is above or exactly -0.04.
class 0

Kindly determine if Bliss excess recorded for CCc1c2c(nc3ccc(O)cc13)-c1cc3c(c(=O)n1C2)COC(=O)[C@]3(O)CC [SN-38] + CN(C)CCCOc1ccc(-c2ccc3ncc4c(c3c2)n(C2CCOCC2)c(=O)n4C)cn1 [AZD0156] (first compound max 0.3 µM, 7x7, partner max 1 µM) is above or exactly -0.04.
class 1

Others:
Kindly determine if Bliss excess recorded for CN(CCO)CC[C@H](CSc1ccccc1)Nc1ccc(S(=O)(=O)NC(=O)c2ccc(N3CCC([C@@H](O)c4ccccc4-c4ccc(Cl)cc4)CC3)cc2)cc1S(=O)(=O)C(F)(F)F [AZD4320] + Cc1cc2ncnn2cc1Nc1ncc2c(n1)n(C1CCOCC1)c(=O)n2C [AZD7648] (first compound max 1 µM, 7x7, partner max 10 µM) is above or exactly -0.04.
class 0

Kindly determine if Bliss excess recorded for NC1(C(=O)N[C@@H](CCO)c2ccc(Cl)cc2)CCN(c2ncnc3[nH]ccc23)CC1 [Capivasertib] + COc1nnc2ccc(N3CCC(c4ccc(OCCN5CCN(C)C(=O)[C@H]5C)cc4)CC3)nn12 [AZD5153] (first compound max 10 µM, 7x7, partner max 1 µM) is above or exactly -0.04.
class 1

###

System: ST486 (Burkitt's Lymphoma)
Assay: Bliss excess, mean over the matrix (fraction); higher = more synergy
Quantity Name: Bliss excess
Numbers only.

Below, 5 molecules whose answers are already recorded.
# Bliss excess (molecule: C[C@@H](Nc1cc(F)cc(F)c1)c1cc(C(=O)N(C)C)cc2c(=O)cc(N3CCOCC3)oc12 [AZD8186] + C1CN(CCC1(C(=O)N[C@@H](CCO)C2=CC=C(C=C2)Cl)N)C3=NC=NC4=C3C=CN4 [AZD5363] (first compound max 10 µM, 7x7, partner max 10 µM) ) is -0.0265

# Bliss excess (molecule: CC1(C)CCC(CN2CCN(c3ccc(C(=O)NS(=O)(=O)c4ccc(NCC5CCOCC5)c([N+](=O)[O-])c4)c(Oc4cnc5[nH]ccc5c4)c3)CC2)=C(c2ccc(Cl)cc2)C1 [Venetoclax] + Cc1cc2ncnn2cc1Nc1ncc2c(n1)n(C1CCOCC1)c(=O)n2C [AZD7648] (first compound max 1 µM, 7x7, partner max 10 µM) ) is -0.0376

# Bliss excess (molecule: CC(=O)c1c(C)c2cnc(Nc3ccc(N4CCNCC4)cn3)nc2n(C2CCCC2)c1=O [Palbociclib] + CC1(C)CCC(CN2CCN(c3ccc(C(=O)NS(=O)(=O)c4ccc(NCC5CCOCC5)c([N+](=O)[O-])c4)c(Oc4cnc5[nH]ccc5c4)c3)CC2)=C(c2ccc(Cl)cc2)C1 [Venetoclax] (first compound max 10 µM, 7x7, partner max 1 µM) ) is -0.0755

# Bliss excess (molecule: Cc1c2c(nn1C)CSCc1cc(n(C)n1)CSc1cc(c3ccccc3c1)OCCCc1c(C(=O)O)n(C)c3c-2c(Cl)ccc13 [AZD5991] + CC(=O)O[C@H]1C(=O)[C@@]2(C)[C@H]([C@H](OC(=O)c3ccccc3)[C@]3(O)C[C@H](OC(=O)[C@H](O)[C@@H](NC(=O)c4ccccc4)c4ccccc4)C(C)=C1C3(C)C)[C@]1(OC(C)=O)CO[C@@H]1C[C@@H]2O [Paclitaxel] (first compound max 1 µM, 7x7, partner max 3 µM) ) is -0.0046

# Bliss excess (molecule: COc1cccc(OCCCN)c1-c1cc(Nc2cnc(C#N)cn2)n[nH]1 [Prexasertib] + C[C@@H]1COCCN1C2=NC(=NC(=C2)C3(CC3)[S@](=N)(=O)C)C4=C5C=CNC5=NC=C4 [AZD6738] (first compound max 1 µM, 7x7, partner max 10 µM) ) is -0.0336

Turning to the following molecule.
# Bliss excess (molecule: NC1(C(=O)N[C@@H](CCO)c2ccc(Cl)cc2)CCN(c2ncnc3[nH]ccc23)CC1 [Capivasertib] + CC(C)n1c(=O)n(C)c2cnc3cc(F)c(-c4ccc(OCCCN5CCCCC5)nc4)cc3c21 [AZD1390] (first compound max 10 µM, 7x7, partner max 0.3 µM) ) is -0.0363
